assay: chemical genetic growth profiling, strain panel (AID 1159580);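 further: tested at 20 µM; growth read once vehicle control cultures reached saturation at 30 °C; 1 = growth at the plate median or of vehicle wells; lower values mean less growth of the strain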; conditions: S. cerevisiae deletion strains, growth OD, locus YHR079C, strain IRE1, hits give low values
The whole screen tested about 5,500 compounds, of which about 2,000 (36%) were called active. Not shown: some 18% with an inconclusive outcome. This is one part of the list.
Property: normalized growth
Answers are plain numbers.

Worked examples follow.
IN: Please give the measured normalized growth for this molecule: C=CCc1ccc(OC(=O)c2ccccc2)c(OC)c1
OUT: 0.931

IN: Okay, and CCCCC[C@H]1C(=O)O[C@H](C)[C@H](NC(=O)c2cccc(NC=O)c2O)C(=O)O[C@@H](C)[C@@H]1OC(=O)CC(C)C ?
OUT: 0.863

IN: What do you get for CN(C)CCOC(c1ccc(Cl)cc1)c1ccccn1 (centres undefined) ?
OUT: 1

IN: Note, next up: C[C@]12CCC(=O)C=C1C=CC1C2CC[C@@]2(C)C1CC[C@@]21CCC(=O)O1 (some centres undefined)
OUT: 0.98

IN: Cool, now O=C(O)c1cc2cc(F)ccc2[nH]1
OUT: 0.988

IN: How about Cc1cc(C)cc(Sc2ccc3nnc(-c4ccccc4)n3n2)c1 ?
OUT: 1.07

IN: # iterate: Oc1cc(O)c2c(c1)O[C@H](c1ccc(O)c(O)c1)[C@H](O)C2
OUT: 0.992

IN: Now give it for CCN1CCCC(OC(=O)C(c2ccccc2)c2ccccc2)C1 (centres undefined) too.
OUT: 0.978

Batch of 2 molecules: report normalized growth for each.
1. C=C[C@@](C)(O)CCC1C(=C)C[C@H](OC(C)=O)C2C(C)(C)CCCC12C (some centres undefined)
2. C#CCN(C)Cc1ccccc1

OUT:
0.961
0.927

Where do these numbers come from? They come from PubChem BioAssay AID1159580.
